Where these numbers come from: patent US10172832B2

Molecular target: FPRL-1 (Homo sapiens)
Construct: expressed in transfected cells
Test: compound-induced calcium activity on FLIPR Tetra in CHO-Gα16 cells stably expressing FPRL1
Type: cell-based
Conditions: relative efficacy
attribute-measured: FPRL-1 Ga16-CHO (Rel. eff.)

Use these answered entries as a reference point.
{"columns": ["compound", "tested-system", "FPRL-1 Ga16-CHO (Rel. eff.)"],
 "data": [
  ["CSc1ccc(NC(=O)N[C@@H](CC(C)C)C(=O)NCC(=O)OC(C)(C)C)cc1", "FPRL-1 (Homo sapiens)", "(0.98)"],
  ["CCC[C@H](NC(=O)[C@H](CC(C)C)NC(=O)Nc1ccc(Br)cc1)C(N)=O", "FPRL-1 (Homo sapiens)", "(1.03)"],
  ["CCC(CC)(NC(=O)Nc1ccc(Br)cc1)C(=O)NCC(=O)OC(C)(C)C", "FPRL-1 (Homo sapiens)", "(1.03)"],
  ["O=C(Nc1ccc(Br)cc1F)N[C@@H](Cc1ccccc1)C(=O)NCCO", "FPRL-1 (Homo sapiens)", "(0.98)"]
]}

Record summary for CC(C)(C)OC(=O)CNC(=O)[C@H](Cc1c[nH]c2ccccc12)NC(=O)Nc1ccc(Br)cc1 (stereo in doubt) : reported FPRL-1 Ga16-CHO (Rel. eff.) = (1.03)

---

Target: FPRL-1 (Homo sapiens, UniProt P25090)
Assay: compound-induced calcium activity on FLIPR Tetra in CHO-Gα16 cells stably expressing FPRL1
Details: tested 0.61 to 10,000 nM, read-out: FPRL-1 Ga16-CHO EC50
attribute-measured: EC50
Answer as a quantity: numeral, then unit.

Use these answered entries as a reference point.
{"columns": ["compound", "endpoint-result"],
 "data": [
  ["CC(C)C[C@H](NC(=O)Nc1ccc(Br)cc1)C(=O)N[C@@H](C)C(=O)OC(C)(C)C", "147 nM"],
  ["CCC[C@H](NC(=O)Nc1ccc(Br)cc1)C(=O)NCC(=O)OC(C)(C)C", "31 nM"],
  ["CC(C)(C)OC(=O)CNC(=O)C(CC(N)=O)NC(=O)Nc1ccc(Br)cc1 (centres unmarked)", "2310 nM"]
]}

For every item below, please supply its EC50.
1. CCC[C@H](NC(=O)Nc1ccc(Br)cc1)C(=O)NCC(=O)OC
2. CC(C)C[C@H](NC(=O)Nc1ccc(C(F)(F)F)cc1)C(=O)NC(C)(C)C(=O)O

Result string:
1: 17 nM; 2: 2.3 nM

---

Biological target: FPRL-1 (Homo sapiens)
Construct: expressed in transfected cells
Test: compound-induced calcium activity on FLIPR Tetra in CHO-Gα16 cells stably expressing FPRL1
Type: cell-based
Settings: relative efficacy
attribute-measured: FPRL-1 Ga16-CHO (Rel. eff.)

{"columns": ["mol", "attribute-measured", "endpoint-result"],
 "data": [
  ["CCC[C@H](NC(=O)Nc1ccc(Br)cc1F)C(=O)NCC(N)=O", "FPRL-1 Ga16-CHO (Rel. eff.)", "(0.98)"],
  ["O=C(O)CCNC(=O)[C@H](Cc1ccccc1)NC(=O)Nc1ccc(Br)cc1", "FPRL-1 Ga16-CHO (Rel. eff.)", "(0.98)"]
]}

---

Biological target: FPRL-1 (Homo sapiens, UniProt P25090)
Sequence (P25090 1-351): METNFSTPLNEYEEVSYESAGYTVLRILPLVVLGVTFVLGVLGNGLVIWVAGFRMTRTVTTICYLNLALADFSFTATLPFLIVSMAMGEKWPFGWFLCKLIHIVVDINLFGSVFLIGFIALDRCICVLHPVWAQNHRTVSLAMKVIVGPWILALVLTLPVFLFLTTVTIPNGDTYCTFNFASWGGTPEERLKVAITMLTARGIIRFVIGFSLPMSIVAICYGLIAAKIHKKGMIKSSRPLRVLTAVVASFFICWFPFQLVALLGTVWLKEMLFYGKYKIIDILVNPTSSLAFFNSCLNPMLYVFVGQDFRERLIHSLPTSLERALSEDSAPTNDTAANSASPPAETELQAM
Test: compound-induced calcium activity on FLIPR Tetra in CHO-Gα16 cells stably expressing FPRL1
Conditions: tested 0.61 to 10,000 nM, read-out: FPRL-1 Ga16-CHO EC50
attribute-measured: EC50 (nM)
Give bare numbers, in nM.

{"columns": ["mol", "EC50 (nM)"],
 "data": [
  ["CC(C)C[C@H](NC(=O)Nc1ccc(C(F)(F)F)cc1)C(=O)NC(C)(C)C(=O)OC(C)(C)C", 1020],
  ["CC[C@H](C)[C@H](NC(=O)Nc1ccc(Br)cc1F)C(=O)NCC(=O)O", 5.5],
  ["CC(C)C[C@H](NC(=O)Nc1ccc(C(F)(F)F)cc1)C(=O)NCC(=O)O", 1.8]
]}

# context switch: different molecule, same EC50
Record summary for O=C(Nc1ccc(Br)cc1)N[C@@H](Cc1ccccc1)C(=O)NCCO : reported EC50 = 6
